The origin of these recorded values is ChEMBL document CHEMBL1147257.

In this section, each of the compounds is paired with its reported pIC50.
tested on: HCT-116; experiment: Cytotoxicity against human HCT116 cells after 72 hrs by MTS/PMS bioreduction assay; assay type: functional, cell-based; conditions: HCT-116, 72 h
For clarity, pIC50 is expressed as the negative log10 of concentration in mol/L.

Use these answered entries as a reference point.
>>> quantitative_result("CN[C@@H]1CC[C@]2(C)[C@H]3CC[C@]4(C)[C@@H]([C@H](C)CC5NCCC5C(C)C)CC[C@H]4C3=CC[C@H]2[C@H]1OC(C)=O (some centres undefined)")
5.85
>>> quantitative_result("CC(C)=C1CCN2[C@@H]1C[C@@H](C)[C@H]1[C@@H]2C[C@H]2C3=CC[C@H]4C[C@H](N(C)C)CC[C@]4(C)[C@H]3CC[C@]12C [PLAKINAMINE I]")
4.97
>>> quantitative_result("CN[C@@H]1CC[C@]2(C)[C@H]3CC[C@]4(C)[C@@H]([C@H](C)CC5NCCC5=C(C)C)CC[C@H]4C3=CC[C@H]2[C@H]1OC(C)=O (some centres undefined) [PLAKINAMINE K]")
5.85

Read the next record carefully.
QUERY: # pIC50 lookup, item CC(C)C1CCN(C)C1C[C@@H](C)[C@H]1CC[C@H]2C3=CC[C@H]4[C@H](N)C=CC[C@]4(C)[C@H]3CC[C@]12C (some centres undefined) [PLAKINAMINE J]
RESULT: 5.21
